meta.source: PubChem BioAssay AID902

assay_summary: qHTS Screen for Compounds that Selectively Target Cancer Cells with p53 Mutations: Cytotoxicity of p53ts Cells at the Nonpermissive Temperature; further: nearly all actives have a fitted effect of over 55% in size
experimental_conditions: H1299-p53A138V viability at 39C, ATP luminescence, 24 h; series mostly up to 46.1 µM
About 1,900 (1.5%) of roughly 130,000 compounds were called active. Another 5% or so got no clear call; they are omitted. The call rests on the fitted dose curve; in most records, active means well fitted cell-killing curve with a large enough effect; inconclusive means small, poorly fitted or top-dose-only effect; inactive means no such curve, though single readings can be large or run the other way. This is one part of a sample in which actives are shown more often than they occur.
Reply using exactly one outcome from active, inactive

>>> print(df.to_string())
                                   compound  label_class
0      Cn1c(O)c(C=NCCN2CCNCC2)c(=O)n(C)c1=O     inactive
1  C[C@]12CC[C@H](O)C[C@@H]1CC[C@H]1[C@H]2CC[C@]2(C)C(=O)CC[C@@H]12     inactive
2  CCN1C[C@]2(C)CC[C@H](O)[C@@]34[C@@H]5CC6[C@@H](OC)C[C@@](O)([C@@H]5[C@@H]6O)[C@H](C[C@@H]23)[C@H]14     inactive
3  CCCCN1C2CCC1CC(OC(c1ccc(F)cc1)c1ccc(F)cc1)C2 (stereo not given)       active
4       CC(C)Oc1ccc(NC(=O)c2cc3ccccc3o2)cc1       active

stdin: Per the assay record, what outcome was assigned to Cc1ccc(N2C(=O)NC(=O)C(CCc3ccncc3)(Cc3cccc(Cl)c3Cl)C2=O)cc1 (stereo not given) ?
stdout: inactive

stdin: Per the assay record, what outcome was assigned to COc1ccc(C2Oc3c(I)c(OC)cc(OC)c3CC2O)cc1OC (stereo not given) ?
stdout: inactive

stdin: Per the assay record, what outcome was assigned to `Fc1ccc(C(OCCN2CCN(C/C=C\c3ccccc3)CC2)c2ccc(F)cc2)cc1` ?
stdout: active

stdin: Per the assay record, what outcome was assigned to `O=C(Nc1ccc(Cl)cc1C(=O)c1ccccc1)c1cc(Cl)cc(Cl)c1` ?
stdout: inactive
